biological target: Prostaglandin G/H synthase 1 (Homo sapiens, UniProt P23219); test: Inhibition of COX1-mediated TXB2 production in human whole blood after 15 mins by competitive enzyme immunoassay
Sequence (P23219 whole entry): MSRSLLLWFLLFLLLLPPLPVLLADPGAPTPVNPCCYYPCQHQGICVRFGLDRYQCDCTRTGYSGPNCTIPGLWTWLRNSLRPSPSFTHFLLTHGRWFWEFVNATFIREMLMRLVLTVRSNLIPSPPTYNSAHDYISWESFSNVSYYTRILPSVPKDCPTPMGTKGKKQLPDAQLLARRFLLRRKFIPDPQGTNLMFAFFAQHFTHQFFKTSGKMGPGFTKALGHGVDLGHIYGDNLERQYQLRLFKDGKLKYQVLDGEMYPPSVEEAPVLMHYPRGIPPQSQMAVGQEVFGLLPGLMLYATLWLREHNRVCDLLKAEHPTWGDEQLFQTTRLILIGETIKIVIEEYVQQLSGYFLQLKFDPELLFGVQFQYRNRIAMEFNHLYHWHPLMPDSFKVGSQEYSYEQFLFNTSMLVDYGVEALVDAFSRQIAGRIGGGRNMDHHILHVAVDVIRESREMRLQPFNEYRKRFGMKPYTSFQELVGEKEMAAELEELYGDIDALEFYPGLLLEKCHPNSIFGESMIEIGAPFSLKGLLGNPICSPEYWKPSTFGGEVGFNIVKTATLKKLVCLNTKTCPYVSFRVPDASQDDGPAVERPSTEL
MEASUREMENT_TYPE: pIC50
The meaning of pIC50 here: minus log10 of the concentration in molar units.

Prompt: Return pIC50 (reported value) for this compound: COc1ccc(-c2ccc(Cn3c(CC(C)(C)C(=O)O)c(SC(C)(C)C)c4cc(OCc5ccc(C)cn5)ccc43)cc2)cn1
Response: 4.91

----------
biological target: Cytochrome P450 2C19 (Homo sapiens)
Sequence (P33261 whole entry): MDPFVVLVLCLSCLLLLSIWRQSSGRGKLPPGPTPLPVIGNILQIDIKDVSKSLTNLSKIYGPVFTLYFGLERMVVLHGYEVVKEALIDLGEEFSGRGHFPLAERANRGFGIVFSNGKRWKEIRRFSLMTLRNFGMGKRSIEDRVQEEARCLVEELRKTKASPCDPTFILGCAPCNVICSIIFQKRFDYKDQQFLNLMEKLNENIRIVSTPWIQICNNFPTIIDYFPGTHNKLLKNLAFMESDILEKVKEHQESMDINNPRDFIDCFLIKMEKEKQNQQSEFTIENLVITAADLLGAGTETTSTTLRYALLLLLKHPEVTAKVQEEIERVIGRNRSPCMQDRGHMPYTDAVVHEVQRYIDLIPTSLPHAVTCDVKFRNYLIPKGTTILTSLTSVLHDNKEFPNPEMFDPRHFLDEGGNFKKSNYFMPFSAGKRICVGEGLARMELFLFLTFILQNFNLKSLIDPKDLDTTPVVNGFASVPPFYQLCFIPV
MEASUREMENT_TYPE: IC50

Prompt: System Cytochrome P450 2C19 (Homo sapiens). Read-out IC50. Item CCOc1ccc(-c2ccc(Cn3c(CC(C)(C)C(=O)O)c(SC(C)(C)C)c4cc(OCc5ccc(C)cn5)ccc43)cc2)cn1 . Report value.
Response: > 40 µM

----------
# IC50 listing for each entry below
target: Arachidonate 5-lipoxygenase-activating protein (Rattus norvegicus, UniProt P20291); assay: Inhibition of FLAP in rat whole blood assessed as inhibition of calcium ionophore A23187-induced LTB4 production preincubated for 4 hrs by ELISA; format: tissue-based
The answer is to be given in nM; state only the numeric part.

> print(dat)
                                   compound  measurement
1  CCOc1ccc(-c2ccc(Cn3c(CC(C)(C)C(=O)O)c(SC(C)(C)C)c4cc(OCc5ccc(C)cn5)ccc43)cc2)cn1           16

Consider the record given below.
Prompt: System Arachidonate 5-lipoxygenase-activating protein (Rattus norvegicus, UniProt P20291). Read-out IC50. Item CC(C)(C)Sc1c(CC(C)(C)C(=O)O)n(Cc2ccc(Cl)cc2)c2ccc(OCc3ccc4ccccc4n3)cc12 [QUIFLAPON SODIUM] . Report value.
Response: 10

----------
assay: Volume of distribution in Beagle dog at 2 mg/kg, iv; type: ADME, organism-based, Canis lupus familiaris; set-up: dose 2 mg/kg, route intravenous; conditions: in vivo
MEASUREMENT_TYPE: Vd (L/kg)
The answer is to be given in L/kg; state only the numeric part.

Prompt: Return Vd (reported value) for this molecule: CCOc1ccc(-c2ccc(Cn3c(CC(C)(C)C(=O)O)c(SC(C)(C)C)c4cc(OCc5ccc(C)cn5)ccc43)cc2)cn1 [FIBOFLAPON]
Response: 0.2

----------
# IC50 listing for each entry below
Target: Arachidonate 5-lipoxygenase-activating protein (Homo sapiens)
Sequence (P20292 whole entry): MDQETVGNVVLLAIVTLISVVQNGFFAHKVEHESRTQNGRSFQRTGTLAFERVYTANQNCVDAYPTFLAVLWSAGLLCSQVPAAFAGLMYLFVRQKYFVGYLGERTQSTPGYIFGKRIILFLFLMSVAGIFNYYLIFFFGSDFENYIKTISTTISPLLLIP
Experiment: Inhibition of FLAP in human whole blood assessed as inhibition of calcium ionophore A23187-induced LTB4 production preincubated for 15 mins by ELISA
The answer is to be given in nM; state only the numeric part.

Recorded IC50, per entry:
> print(dat)
                                   compound  measurement
1  COc1ccc(-c2ccc(Cn3c(CC(C)(C)C(=O)O)c(SC(C)(C)C)c4cc(OCc5cccc(C)n5)ccc43)cc2)cn1          535
2  Cc1ccc(COc2ccc3c(c2)c(SC(C)(C)C)c(CC(C)(C)C(=O)O)n3Cc2ccc(-c3ccccn3)cc2)nc1          285
3  Cc1ccc(COc2ccc3c(c2)c(SC(C)(C)C)c(CC(C)(C)C(=O)O)n3Cc2ccc(-c3ccc(=O)[nH]c3)cc2)nc1        10000
4  CC(C)c1ccc2c(c1)c(SC(C)(C)C)c(CC(C)(C)C(=O)O)n2Cc1ccc(Cl)cc1         1400
5  Cc1ccc(COc2ccc3c(c2)c(SC(C)(C)C)c(CC(C)(C)C(=O)O)n3Cc2ccc(-c3ccc(C(F)(F)F)cn3)cc2)nc1          435

Prompt: Return IC50 (reported value) for this compound: CCOc1ccc(-c2ccc(Cn3c(CC(C)(C)C(=O)O)c(C(=O)CC(C)(C)C)c4cc(OCc5ccc(C)cn5)ccc43)cc2)cn1
Response: 1580

Prompt: Return IC50 (reported value) for this compound: Cc1ccc(COc2ccc3c(c2)c(SC(C)(C)C)c(CC(C)(C)C(=O)O)n3Cc2ccc(-c3ccc(C)cn3)cc2)nc1
Response: 283

Prompt: Return IC50 (reported value) for this compound: CC(C)(C)Sc1c(CC(C)(C)C(=O)O)n(Cc2ccc(Cl)cc2)c2ccc(OCc3ccc4ccccc4n3)cc12 [QUIFLAPON SODIUM]
Response: 536

Prompt: Return IC50 (reported value) for this compound: COc1ccc(-c2ccc(Cn3c(CC(C)(C)C(=O)O)c(SC(C)(C)C)c4cc(OCc5ccc6cc(F)ccc6n5)ccc43)cc2)cn1
Response: 747

Prompt: Return IC50 (reported value) for this compound: Cc1ccc(COc2ccc3c(c2)c(SC(C)(C)C)c(CC(C)(C)C(=O)O)n3Cc2ccc(-c3cccnc3)cc2)nc1
Response: 268

----------
# IC50 listing for each entry below
Biological target: Arachidonate 5-lipoxygenase-activating protein (Rattus norvegicus, UniProt P20291)
Sequence (P20291 whole entry): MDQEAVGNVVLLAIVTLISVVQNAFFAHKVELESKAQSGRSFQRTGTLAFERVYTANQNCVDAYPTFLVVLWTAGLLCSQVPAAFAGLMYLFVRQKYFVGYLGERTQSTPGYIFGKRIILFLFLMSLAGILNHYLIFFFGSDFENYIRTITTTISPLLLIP
Experiment: Inhibition of FLAP in rat whole blood assessed as inhibition of calcium ionophore A23187-induced LTB4 production preincubated for 15 mins by ELISA
Format: tissue-based
The answer is to be given in nM; state only the numeric part.

> print(dat)
                                   compound  measurement
1  CCOc1ccc(-c2ccc(Cn3c(CC(C)(C)C(=O)O)c(SC(C)(C)C)c4cc(OCc5ccc(C)cn5)ccc43)cc2)cn1 [FIBOFLAPON]          239

Consider the record given below.
Prompt: System Arachidonate 5-lipoxygenase-activating protein (Rattus norvegicus, UniProt P20291). Read-out IC50. Item CC(C)(C)Sc1c(CC(C)(C)C(=O)O)n(Cc2ccc(Cl)cc2)c2ccc(OCc3ccc4ccccc4n3)cc12 [QUIFLAPON SODIUM] . Report value.
Response: 117

----------
target: Prostaglandin G/H synthase 1 (Homo sapiens); experiment: Inhibition of COX1-mediated TXB2 production in human whole blood after 5 hrs by competitive enzyme immunoassay
MEASUREMENT_TYPE: pIC50
The meaning of pIC50 here: minus log10 of the concentration in molar units.

Prompt: Return pIC50 (reported value) for this compound: COc1ccc(-c2ccc(Cn3c(CC(C)(C)C(=O)O)c(SC(C)(C)C)c4cc(OCc5ccc(C)cn5)ccc43)cc2)cn1
Response: 4.76

----------
experiment: Cmax in Sprague-Dawley rat at 10 mg/kg, po; format: ADME, organism-based; set-up: dose 10 mg/kg, route oral; settings: in vivo
MEASUREMENT_TYPE: Cmax (µM)
The answer is to be given in µM; state only the numeric part.

Recorded Cmax, per entry:
> print(dat)
                                   compound  measurement.units  measurement
1  Cc1ccc(COc2ccc3c(c2)c(SC(C)(C)C)c(CC(C)(C)C(=O)[O-])n3Cc2ccc(-c3ccc(F)cn3)cc2)nc1.[Na+]                 µM         23.3
2  CCOc1ccc(-c2ccc(Cn3c(CC(C)(C)C(=O)[O-])c(SC(C)(C)C)c4cc(OCc5ccc(C)cn5)ccc43)cc2)cn1.[Na+] [FIBOFLAPON SODIUM]                 µM         12.2

Prompt: Return Cmax (reported value) for this compound: Cc1ccc(COc2ccc3c(c2)c(SC(C)(C)C)c(CC(C)(C)C(=O)[O-])n3Cc2ccc(-c3ccc(C)cn3)cc2)nc1.[Na+]
Response: 14.6

Prompt: Return Cmax (reported value) for this compound: COc1cnc(-c2ccc(Cn3c(CC(C)(C)C(=O)[O-])c(SC(C)(C)C)c4cc(OCc5ccc(C)cn5)ccc43)cc2)nc1.[Na+]
Response: 30.6

----------
# IC50 listing for each entry below
target: Prostaglandin G/H synthase 1 (Homo sapiens, UniProt P23219); test: Inhibition of COX1-mediated TXB2 production in human whole blood after 30 mins by competitive enzyme immunoassay
The answer is to be given in µM; state only the numeric part.

> print(dat)
                                smiles.code  measurement.type  measurement.units  measurement
1  COc1cnc(-c2ccc(Cn3c(CC(C)(C)C(=O)O)c(SC(C)(C)C)c4cc(OCc5ccc(C)cn5)ccc43)cc2)nc1              IC50                 µM           25

Prompt: Return IC50 (reported value) for this compound: CCOc1ccc(-c2ccc(Cn3c(CC(C)(C)C(=O)O)c(SC(C)(C)C)c4cc(OCc5ccc(C)cn5)ccc43)cc2)cn1
Response: 58
